tested on: P388 leukemia ip, CD2F1 mice, survival T/C; assay: NCI In Vivo Anticancer Drug Screen. Data for tumor model P388 Leukemia (intraperitoneal) in CD2F1 (CDF1) mice; settings: endpoint: median survival time; dose: 100.0 mg/kg/injection; schedule: Q01DX009 (ip); vehicle: distilled water + Tween-80; higher = longer survival
Inconclusive results and toxic doses are left out.
MEASUREMENT_TYPE: T/C

Given the compound CCOC(=O)C1=C(C)NC(C)=C(C(=O)OCC)C1c1cccnc1 , what is its reported T/C?
94 % of control

Given the compound CCCNC(=O)OCc1c(COC(=O)NCCC)c(-c2ccc(Cl)c(Cl)c2)n2c1CCC2 , what is its reported T/C?
95 % of control

Given the compound COc1c(Br)cnc2ccccc12 , what is its reported T/C?
102 % of control

Given the compound Cc1cc(NCc2ccccc2)c(C)c2c1C=NCC2 , what is its reported T/C?
92 % of control

Given the compound O=c1c2ccccc2nnn1OCc1ccccc1 , what is its reported T/C?
101 % of control

====

Could you please report measured T/C for the items listed next?
Test system: P388 leukemia ip, CD2F1 mice, survival T/C
Assay: NCI In Vivo Anticancer Drug Screen. Data for tumor model P388 Leukemia (intraperitoneal) in CD2F1 (CDF1) mice
Details: endpoint: median survival time; dose: 50.0 mg/kg/injection; schedule: Q04DX003 (ip); vehicle: saline; higher = longer survival
Experimental: The antitumor activity of compounds was measured in mice bearing transplantable tumors. Survival or tumor size were measured and the results are expressed as the measurement made in the treated group (T) divided by the measurement made in the vehicle treated control group (C). The tumor model used in this assay is P388 Leukemia (intraperitoneal) in CD2F1 (CDF1) mice
Toxic doses and inconclusive results are not listed.

Given the compound N#CC(C#N)(c1ccccc1)N1CCOCC1 , what is its reported T/C?
100 % of control

Given the compound Cc1ncc(C[n+]2cccc(CCO)c2C)c(N)n1 , what is its reported T/C?
97 % of control

Given the compound CCOC1OCN(C)CC1(C)C (centres undefined) , what is its reported T/C?
109 % of control

Given the compound CN1CCC(OC(=O)c2ccc3ncccc3c2)CC1 , what is its reported T/C?
100 % of control

====

system: P388 leukemia ip, CD2F1 mice, survival T/C; assay: NCI In Vivo Anticancer Drug Screen. Data for tumor model P388 Leukemia (intraperitoneal) in CD2F1 (CDF1) mice; conditions: endpoint: median survival time; dose: 50.0 mg/kg/injection; schedule: Q01DX001 (ip); vehicle: Klucel (hydroxypropylcellulose) (HPC); higher = longer survival
Toxic doses and inconclusive results are not listed.
MEASUREMENT_TYPE: T/C

Given the compound CCn1c(Cl)c(/C=N\Nc2cccc([N+](=O)[O-])c2)c2ccccc21 , what is its reported T/C?
87 % of control

Given the compound O=CN1CCCC1Cc1ccccc1 (stereo not given) , what is its reported T/C?
101 % of control

Given the compound CCC1C(=O)OCc2c1cc1n(c2=O)CCC1 (stereo not given) , what is its reported T/C?
123 % of control

Given the compound Cc1ccc(OP(=O)(Oc2ccc(C)cc2)Oc2ccc(C)cc2)cc1.Cc1ccc(OP(=O)(Oc2ccc(C)cc2)Oc2ccc(C)cc2)cc1.Cc1ccc(OP(=O)(Oc2ccc(C)cc2)Oc2ccc(C)cc2)cc1.Cc1ccc(OP(=O)(Oc2ccc(C)cc2)Oc2ccc(C)cc2)cc1.[Cu+2].[O-][Cl+3]([O-])([O-])O , what is its reported T/C?
96 % of control

Given the compound CCC1(CC(=O)O)OCCc2c1[nH]c1c(C)c(Cl)ccc21 (stereo not given) , what is its reported T/C?
101 % of control
